Below, each entry is listed alongside its reported MIC.
System: Acinetobacter lwoffii
Test: microbe, parasite or virus in culture
Conditions: ATCC 17925, 24 h
Description: Antibacterial activity against Acinetobacter lwoffii ATCC 17925 after 24 hrs by geometric microdilution method
Please answer using a numeric value trailed by its unit.

Reference set (2 entries):
Fill blank: measured MIC of the compound NC[C@H]1O[C@H](O[C@H]2[C@H](O)[C@@H](O)[C@H](N)C[C@@H]2N)[C@H](N)[C@@H](O)[C@@H]1O is ____.
2 µg/mL

Fill blank: measured MIC of the compound NC[C@H]1O[C@H](O[C@H]2[C@H](O)[C@@H](OCc3ccccc3)[C@H](N)C[C@@H]2N)[C@H](N)[C@@H](OCc2ccccc2)[C@@H]1OCc1ccccc1 is ____.
128 µg/mL

--- query ---
Fill blank: measured MIC of the compound NCC[C@H](O)C(=O)N[C@@H]1C[C@H](N)[C@@H](O[C@H]2O[C@H](CN)[C@@H](O)[C@H](O)[C@H]2O)[C@H](O)[C@H]1O[C@H]1O[C@H](CO)[C@@H](O)[C@H](N)[C@H]1O is ____.
0.5 µg/mL
